Test system: NL4-3 strain of HIV-1
METHOD_NOTES: HIV replication inhibition: CellTiter-Glo cyto-protection assay in MT4 cells infected with NL4-3 virus
Format: cell-based
CONDITIONS: Human immunodeficiency virus 1, NL43, 120 h, concentration giving 50% cyto-protection, 5 days incubation, CellTiter-Glo viability readout
Note to self: EC50 under 4 µM means rule met, ties and anything higher get rule not met.

[in] Quick check: does Cc1cccc(-c2ccc3c(c2)CCCO3)c1C(OC(C)(C)C)C(=O)O (stereo not shown) [Example 22] have EC50 under 4 µM?
[out] rule not met

[in] Bench note: check whether CC1(C)CC=C(c2cccc(C(F)(F)F)c2C(OC(C)(C)C)C(=O)O)CC1 (stereo not shown) [Example 36] shows EC50 below 4 µM
[out] rule not met

[in] Input CC(C)(C)OC(C(=O)O)c1c(C(F)(F)F)ccc(OCc2ccccc2)c1-c1ccc2c(c1)CCCO2 (stereo not shown) [Example 35] ; condition: EC50 strictly below 4 µM. Does it hold?
[out] rule met

[in] Please state whether EC50 is below 4 µM for CC(C)(C)OC(C(=O)O)c1ccc(-c2cccc(-c3cccnc3)c2)cc1-c1ccc2c(c1)CCCO2 (stereo not shown) [Example 30]
[out] rule not met

[in] Please indicate whether the reported EC50 of Cc1ccc(C)c(C(OC(C)(C)C)C(=O)O)c1-c1ccc2c(c1)CCCO2 (stereo not shown) [Example 27] is strictly below 4 µM.
[out] rule met

[in] Is EC50 strictly under 4 µM for the entry CC(C)(C)OC(C(=O)O)c1c(-c2ccc3c(c2)CCCO3)ccc2ncccc12 (stereo not shown) [Example 20] ?
[out] rule met

[in] Item Cc1cccc(C(OC(C)(C)C)C(=O)O)c1-c1ccc2c(c1)CCCO2 (stereo not shown) [Example 11] : EC50 beneath 4 µM, strictly?
[out] rule not met

[in] Is EC50 of CC(C)(C)OC(C(=O)O)c1c(-c2ccc3c(c2)CCCO3)cccc1C(F)(F)F (stereo not shown) [Example 33] strictly below 4 µM?
[out] rule not met

[in] Below 4 µM on EC50? Entry CC(C)(C)OC(C(=O)O)c1c(C(F)(F)F)ccc(F)c1-c1ccc2c(c1)CCCO2 (stereo not shown) [Example 34]
[out] rule not met

[in] Strictly below 4 µM: is that where EC50 of CC(C)(C)OC(C(=O)O)c1cccc(C(F)(F)F)c1-c1ccc2c(c1)CCCO2 (stereo not shown) [Example 21] sits?
[out] rule not met
